- method notes: chemical genetic growth profiling, strain panel (AID 1159580);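 note: tested at 20 µM; growth read once vehicle control cultures reached saturation at 30 °C; 1 = growth at the plate median or of vehicle wells; lower values mean less growth of the strain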
- condition label: S. cerevisiae deletion strains, growth OD, locus YMR205C, strain PFK2, hits give low values
In all, about 5,500 compounds went through this assay and about 2,000 (36%) were called active. Not shown: some 18% with an inconclusive outcome. Some of the results follow.
For each record, check the reported normalized growth: if it is below 1 write Y, else write N.

Enquiry: Say whether its normalized growth is strictly beneath 1. Entry: Cc1cccc(C)c1OCC(C)N (configuration not stated)
Return: N

Enquiry: Say whether its normalized growth is strictly beneath 1. Entry: CCC(=O)O[C@H]1CCC2C3CCC4=CC(=O)CC[C@]4(C)C3CC[C@@]21C (some centres not stated)
Return: Y

Enquiry: Say whether its normalized growth is strictly beneath 1. Entry: CC(=O)[C@H]1CCC2C3CCC4=CC(=O)CC[C@]4(C)C3CC[C@@]21C (some centres not stated)
Return: Y

Enquiry: Say whether its normalized growth is strictly beneath 1. Entry: CC(=O)NC1SCCC1=O (configuration not stated)
Return: Y

Enquiry: Say whether its normalized growth is strictly beneath 1. Entry: COc1cc(/C=C/C(=O)/C=C(O)/C=C/c2ccc(O)c(OC)c2)ccc1O
Return: Y

----------
Can you tell me normalized growth for the items I'm about to list?
- method notes: chemical genetic growth profiling, strain panel (AID 1159580)
- condition label: S. cerevisiae deletion strains, growth OD, locus YOR001W, strain rrp6, hits give low values
Out of some 5,500 compounds screened, about 2,000 (36%) were called active. Inconclusive results (about 18%) are left out. The list shows a part of the results.
Quick one: just the number, no unit, thanks!

Enquiry: Give a short answer stating reported normalized growth for COc1ccc2c3c1O[C@H]1C[C@@H](O)C=C[C@@]31CCN(C)C2 .
Return: 0.996

Enquiry: Give a short answer stating reported normalized growth for NCCSSCCN .
Return: 0.989

Enquiry: Give a short answer stating reported normalized growth for O=C1C=CC(=C(c2ccc(O)cc2)c2ccc(O)cc2)C=C1 .
Return: 0.96

Enquiry: Give a short answer stating reported normalized growth for CC(=O)OCC(=O)[C@@]1(O)CCC2C3CCC4=CC(=O)CC[C@]4(C)C3C(=O)C[C@@]21C (stereo not given in full) .
Return: 0.951

Enquiry: Give a short answer stating reported normalized growth for COc1cc2c(cc1OC)[C@@H]1C(=O)c3ccc4c(c3O[C@@H]1CO2)C=CC(C)(C)O4 .
Return: 0.997

----------
- method notes: chemical genetic growth profiling, strain panel (AID 1159580)
- condition label: S. cerevisiae deletion strains, growth OD, locus YPL241C, strain CIN2, hits give low values
The whole screen tested about 5,500 compounds, of which about 2,000 (36%) were called active. Not shown: some 18% with an inconclusive outcome. The list shows a part of the results.
Can you tell me normalized growth for the items I'm about to list?
Quick one: just the number, no unit, thanks!

Enquiry: Give a short answer stating reported normalized growth for COP(=O)(OC)OC=C(Cl)Cl .
Return: 0.98

Enquiry: Give a short answer stating reported normalized growth for CN1CCC(=C2c3ccccc3Sc3ccccc32)CC1 .
Return: 1

Enquiry: Give a short answer stating reported normalized growth for Ic1ccc(I)s1 .
Return: 1.06

Enquiry: Give a short answer stating reported normalized growth for C=C1C([C@]2(C)C(CC(=O)OC)[C@@](C)(COC(C)=O)OC(=O)C[C@@H]2OC(C)=O)[C@@H](OC=O)[C@H](OC(=O)C(O)C(C)CC)[C@@]2(C)[C@H](c3ccoc3)CC(=O)C12O (some centres undefined) .
Return: 1.01

Enquiry: Give a short answer stating reported normalized growth for COc1ccc2cc([C@H](C)C(=O)O)ccc2c1 .
Return: 1

Enquiry: Give a short answer stating reported normalized growth for C[N+](C)(C)CCOC(=O)CBr .
Return: 1.01

Enquiry: Give a short answer stating reported normalized growth for CNC(=O)[C@H]1O[C@@H](n2cnc3c(N)ncnc32)C(O)[C@H]1O (some centres undefined) .
Return: 0.976

Enquiry: Give a short answer stating reported normalized growth for CC1(C)C(C=C(Cl)Cl)C1C(=O)OC(C#N)c1cccc(Oc2ccccc2)c1 (centres undefined) .
Return: 1

Enquiry: Give a short answer stating reported normalized growth for C[N+](C)(C)CCOC(=O)CCC(=O)OCC[N+](C)(C)C .
Return: 0.987

----------
- method notes: chemical genetic growth profiling, strain panel (AID 1159580);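 note: tested at 20 µM; growth read once vehicle control cultures reached saturation at 30 °C; 1 = growth at the plate median or of vehicle wells; lower values mean less growth of the strain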
- condition label: S. cerevisiae deletion strains, growth OD, locus YHR094C, strain hxt1, hits give low values
The whole screen tested about 5,500 compounds, of which about 2,000 (36%) were called active. Not shown: some 18% with an inconclusive outcome. This is one part of the list.
observation type: normalized growth
Quick one: just the number, no unit, thanks!

Enquiry: Give a short answer stating reported normalized growth for CCOC(=O)CCC(=O)O[C@H]1[C@H](O[C@@H]2[C@@H](C)[C@H](O[C@H]3C[C@@](C)(OC)[C@@H](O)[C@H](C)O3)[C@@H](C)C(=O)O[C@H](CC)[C@@](C)(O)[C@H](O)[C@@H](C)C(=O)[C@H](C)C[C@@]2(C)O)O[C@H](C)C[C@@H]1N(C)C .
Return: 0.985

Enquiry: Give a short answer stating reported normalized growth for CC1(C)OC(=O)NC1=O .
Return: 0.972

Enquiry: Give a short answer stating reported normalized growth for CC1=C(/C=C/C(C)=C/C=C/C(C)=C/C=C/C=C(C)/C=C/C=C(C)/C=C/C23OC2(C)CC(O)CC3(C)C)C(C)(C)CC(O)C1 (centres undefined) .
Return: 1.01

Enquiry: Give a short answer stating reported normalized growth for COc1cc(O)c(C(=O)/C=C/c2ccccc2)c(OC)c1 .
Return: 0.917

----------
Can you tell me normalized growth for the items I'm about to list?
- method notes: chemical genetic growth profiling, strain panel (AID 1159580);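 note: tested at 20 µM; growth read once vehicle control cultures reached saturation at 30 °C; 1 = growth at the plate median or of vehicle wells; lower values mean less growth of the strain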
- condition label: S. cerevisiae deletion strains, growth OD, locus YNL153C, strain GIM3, hits give low values
In all, about 5,500 compounds went through this assay and about 2,000 (36%) were called active. Inconclusive results (about 18%) are left out. The list shows a part of the results.
Quick one: just the number, no unit, thanks!

Enquiry: Give a short answer stating reported normalized growth for CC(C)(C)c1ccc(-c2nc(-c3cc(C(C)(C)C)c(O)c(C(C)(C)C)c3)cs2)cc1 .
Return: 0.988

Enquiry: Give a short answer stating reported normalized growth for CC(N)C(=O)OC(C)(C)Cc1ccc(Cl)cc1 (stereo unspecified) .
Return: 0.992

Enquiry: Give a short answer stating reported normalized growth for CC(C(=O)O)c1cccc(Oc2ccccc2)c1 (stereo unspecified) .
Return: 0.997

Enquiry: Give a short answer stating reported normalized growth for CN1CCc2cc(Cl)c(O)cc2[C@@H](c2ccccc2)C1 .
Return: 1.02

Enquiry: Give a short answer stating reported normalized growth for CCO/C=C1\SC(=S)N(CCc2ccccc2)C1=O .
Return: 0.936

Enquiry: Give a short answer stating reported normalized growth for CCN(CC)CCCC(C)Nc1c2ccc(Cl)cc2nc2ccc(OC)cc12 (stereo unspecified) .
Return: 0.819

Enquiry: Give a short answer stating reported normalized growth for N[C@@H](C(=O)O)c1ccccc1 .
Return: 0.999

Enquiry: Give a short answer stating reported normalized growth for CCN(CC)CCNC(=O)c1cc(Br)c(N)cc1OC .
Return: 0.961

Enquiry: Give a short answer stating reported normalized growth for OC1(c2ccc(Cl)cc2)CCN(Cc2c[nH]c3ccccc23)CC1 .
Return: 1

Enquiry: Give a short answer stating reported normalized growth for CC(C)(C)c1cc(-c2csc(-c3ccc(Cl)cc3)n2)cc(C(C)(C)C)c1O .
Return: 1

Enquiry: Give a short answer stating reported normalized growth for COc1cc2c(cc1OC)[C@@H]1C(=O)c3ccc(OC)c(CC=C(C)C)c3O[C@@H]1CO2 .
Return: 1.04

----------
Can you tell me normalized growth for the items I'm about to list?
- method notes: chemical genetic growth profiling, strain panel (AID 1159580);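 note: tested at 20 µM; growth read once vehicle control cultures reached saturation at 30 °C; 1 = growth at the plate median or of vehicle wells; lower values mean less growth of the strain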
- condition label: S. cerevisiae deletion strains, growth OD, locus YPL055C, strain LGE1, hits give low values
The whole screen tested about 5,500 compounds, of which about 2,000 (36%) were called active. Inconclusive results (about 18%) are left out. The list shows a part of the results.
Quick one: just the number, no unit, thanks!

Enquiry: Give a short answer stating reported normalized growth for COc1ccc(S(=O)(=O)Nc2ccccc2Oc2ccc(Cl)cc2Cl)cc1OC .
Return: 0.959

Enquiry: Give a short answer stating reported normalized growth for CC(=O)c1c(O)c(C)c(O)c2c1oc1c(C(C)=O)c(O)c(C)c(O)c12 .
Return: 0.95

Enquiry: Give a short answer stating reported normalized growth for Cc1nc2c([nH]1)c(=O)n(C)c(=O)n2Cc1ccco1 .
Return: 1.01

Enquiry: Give a short answer stating reported normalized growth for CC[C@H]1OC(=O)[C@H](C)[C@@H](O[C@H]2C[C@@](C)(OC)[C@@H](O)[C@H](C)O2)[C@H](C)[C@@H](O[C@@H]2O[C@H](C)C[C@H](N(C)C)[C@H]2O)[C@](C)(O)C[C@@H](C)CN(C)[C@H](C)[C@@H](O)[C@]1(C)O .
Return: 1.01

Enquiry: Give a short answer stating reported normalized growth for CCCCNc1c(C(=O)OCC)c(C)nc2c1cnn2CC .
Return: 1.01

Enquiry: Give a short answer stating reported normalized growth for C[C@H]1O[C@@H](n2cc(F)c(=O)[nH]c2=O)[C@H](O)[C@@H]1O .
Return: 1.02

Enquiry: Give a short answer stating reported normalized growth for CCOC(=O)c1cnc2c(cnn2CC)c1NN=C(C)C .
Return: 0.966

Enquiry: Give a short answer stating reported normalized growth for O=C1c2cccc3c([N+](=O)[O-])ccc(c23)C(=O)N1Cc1ccco1 .
Return: 0.628
